Values were extracted from patent US20190016812A1.

# system: T1, cynomolgus TNFSF9 (cTNFSF9) protein, soluble recombinant (cynomolgus)
# T1 construct: extracellular domain; also called cynomolgus TNFSF9 protein
# test: SPR (Biacore)
property-label: pKd
One number for each entry, as −log10 of the molar value.

{"binder": "SC113.44 (antibody, mouse IgG1, V domains shown, mouse IgG1) VH: QVQLQQSGPELVKPGTSVRISCKASGYTFTSYYIHWVKQRPGQGLEWIGWIYPRDVDTKYNETFKGKATLTADKSSSTAYIQLNSLTSEDSAVYFCARELTGTVFDYWGQGTTLTVSS VL: QIVLSQSPAILSASPGEKVTMTCRASSSVTYMHWYQRKPGSSPKPWIYATSTLASGVPARFSGTGSGTSYSLTISRVEAEDAATYFCQQWSSNPLTFGAGTKLELK", "pKd": 7.89}
{"binder": "SC113.46 (antibody, V domains shown, mouse antibody, isotype N/A) VH: QIQLVQSGPELKKPGETVKISCKASGYSFTNYGMNWVKQTPRKGLKWVGWINTYTGETTYADDFKGRFAFSLETSASTAYLQINNLKNEDMATYFCARIYGYGWFAYWGQGTLVTVSA VL: DIQMTQSPSSLSASLGERVSLTCRASQEISGYLSWLQQKPDGTIKRLIYAASTLDSGAPKRFSGSRSGSDYSLIISSLESEDFADYYCLQYSSYPYTFGGGTKLEIK", "pKd": 7.80}

Data request: Find the measured pKd of SC113.35 (antibody, mouse IgG2b, V domains shown, mouse IgG2b) VH: DVQLQESGPDLVKPSQSLSLTCTVTGYSITSGYGWHWIRQFPGNKLEWMGYIDYSGNNNYNPSLKSRISITRDTSKNQLFLQLNSVTAEDTATYFCARIYYDAMDYWGQGTSVTVSS VL: DIVMTQSHKFMSTSVGERVSITCKASQDVGGAVAWYQQKPGQSPKLLIYWASTRHTGVPDRFTGSGSGTDFTLTISNVQSEDLADYFCQQYSSYPLTFGAGTKLDLK and report it.
Data returned: 8.00
